- Tested on: Staphylococcus aureus FDA 209P
- Protocol notes: minimum inhibitory concentration, agar dilution assay
- Assay type: cell-based
- Test settings: FDA209P, agar dilution, 35° C., 20 hours, read-out: minimum inhibitory concentration
Measured attribute: MIC

Some solved entries appear below for comparison.
> print(dat)
                                   molecule  measured.attribute      result
1  CC(O)C1C(=O)N2C(C(=O)O)=C(Sc3ccccn3)CC12 (stereo not drawn)                 MIC   < 7 ng/mL
2  CC(O)C1C(=O)N2C(C(=O)O)=C(Sc3ccccc3)CC12 (stereo not drawn)                 MIC   < 7 ng/mL
3  CCC1C(=O)N2C(C(=O)O)=C(Sc3ncccn3)CC12 (stereo not drawn)                 MIC  < 12 ng/mL
4  CCC1C(=O)N2C(C(=O)O)=C(SC3CCCCC3)CC12 (stereo not drawn)                 MIC  < 10 ng/mL
5  CC(O)C1C(=O)N2C(C(=O)O)=C(Sc3ccncc3)CC12 (stereo not drawn)                 MIC   < 7 ng/mL

# MIC (molecule: CC(O)C1C(=O)N2C(C(=O)O)=C(Sc3ncccn3)CC12 (stereo not drawn) ) is < 7 ng/mL

====

- Tested on: Escherichia coli RGN 823
- Protocol notes: minimum inhibitory concentration, agar dilution assay
- Format: cell-based
- Test settings: RGN823, agar dilution, 35° C., 20 hours, read-out: minimum inhibitory concentration
Measured attribute: MIC

Some solved entries appear below for comparison.
> print(dat)
                                   compound  measured.attribute       result
1  CC(O)[C@H]1C(=O)N2C(C(=O)O)=C(SC3CCCCC3)C[C@H]12 (some centres unmarked)                 MIC  > 100 µg/mL
2  CC(C)C1C(=O)N2C(C(=O)O)=C(SC3CCCCC3)CC12 (centres unmarked)                 MIC  > 100 µg/mL
3  CC(=O)NCCSC1=C(C(=O)O)N2C(=O)C(C(C)O)C2C1 (centres unmarked) [PS-3B, reference compound]                 MIC   1.06 µg/mL
4  Cc1nnc(SCC2=C(C(=O)O)N3C(=O)[C@@H](NC(=O)Cn4cnnn4)[C@H]3SC2)s1 [CEZ, cephazolin, reference compound]                 MIC    200 µg/mL

# MIC (compound: CC(O)C1C(=O)N2C(C(=O)O)=C(Sc3ncccn3)CC12 (centres unmarked) ) is 1.56 µg/mL

Taken from patent US4337199A.
